- ASSAY_OVERVIEW: total protein half-life in vivo (active degradation + dilution); higher = more stable protein
- CONDITIONS: wild type E. coli NCM3722; growth: P-lim chemostat; doubling time 6 h
PROPERTY_MEASURED: total protein half-life in vivo (h)
Give bare numbers, in h.

// solved cases for total protein half-life in vivo follow
SEQ_TEXT	PROPERTY_MEASURED	READING
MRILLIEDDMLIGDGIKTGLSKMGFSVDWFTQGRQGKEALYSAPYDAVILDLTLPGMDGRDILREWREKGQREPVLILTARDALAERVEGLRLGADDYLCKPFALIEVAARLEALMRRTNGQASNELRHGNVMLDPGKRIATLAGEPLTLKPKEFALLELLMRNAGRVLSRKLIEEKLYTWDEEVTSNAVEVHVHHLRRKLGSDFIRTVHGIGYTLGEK	total protein half-life in vivo	5.27
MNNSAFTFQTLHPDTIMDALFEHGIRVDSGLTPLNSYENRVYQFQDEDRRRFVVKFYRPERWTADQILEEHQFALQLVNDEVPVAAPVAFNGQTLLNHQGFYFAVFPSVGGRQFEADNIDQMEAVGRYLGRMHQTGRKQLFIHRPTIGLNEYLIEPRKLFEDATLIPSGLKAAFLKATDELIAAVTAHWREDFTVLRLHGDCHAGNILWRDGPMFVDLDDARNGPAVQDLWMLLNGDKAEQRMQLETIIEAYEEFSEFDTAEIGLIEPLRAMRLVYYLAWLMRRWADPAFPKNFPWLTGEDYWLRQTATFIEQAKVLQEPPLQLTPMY [P0C0K3]	total protein half-life in vivo	6.02

Note: attention shifts to another entry.
IN: Which total protein half-life in vivo is reported for this sequence? `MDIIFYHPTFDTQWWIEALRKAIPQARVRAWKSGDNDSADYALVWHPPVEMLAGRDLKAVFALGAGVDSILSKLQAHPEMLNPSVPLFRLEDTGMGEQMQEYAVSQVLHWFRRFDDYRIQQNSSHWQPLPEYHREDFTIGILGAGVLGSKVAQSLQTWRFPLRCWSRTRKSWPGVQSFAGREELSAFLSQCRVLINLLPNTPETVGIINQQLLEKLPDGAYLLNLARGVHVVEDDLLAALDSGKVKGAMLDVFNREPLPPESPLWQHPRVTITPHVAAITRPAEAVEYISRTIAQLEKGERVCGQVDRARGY`
OUT: 5.82

The origin of these recorded values is the supplement of paper PMC11246515.
